The reported measurements were obtained from patent US20200024330A1.

Assay Target: HIV-1 JR-CSF Env I307A (HIV-1 JR-CSF) (UniProt P20871)
Test Name: cell-based or functional assay
Assay Metric: Fold IC50 increase relative to wild-type (fold)
Give your result in fold as a bare value.

Just so you know, measured Fold IC50 increase relative to wild-type for PGT-123 (antibody, V domains shown) VH: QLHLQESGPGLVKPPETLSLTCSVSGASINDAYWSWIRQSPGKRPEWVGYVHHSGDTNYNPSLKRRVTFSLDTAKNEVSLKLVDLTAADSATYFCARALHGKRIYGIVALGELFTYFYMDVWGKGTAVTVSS VL: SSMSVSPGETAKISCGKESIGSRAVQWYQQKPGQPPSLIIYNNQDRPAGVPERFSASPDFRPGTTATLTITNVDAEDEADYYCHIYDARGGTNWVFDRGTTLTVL came out at 5.9

Just so you know, measured Fold IC50 increase relative to wild-type for PGT-135 (antibody, V domains shown) VH: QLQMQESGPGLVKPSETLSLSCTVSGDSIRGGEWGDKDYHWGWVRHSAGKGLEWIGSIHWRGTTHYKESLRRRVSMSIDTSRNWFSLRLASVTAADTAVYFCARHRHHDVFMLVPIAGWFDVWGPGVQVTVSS VL: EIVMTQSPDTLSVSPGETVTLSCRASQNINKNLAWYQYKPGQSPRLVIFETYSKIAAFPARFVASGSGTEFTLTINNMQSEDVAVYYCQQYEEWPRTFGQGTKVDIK came out at 0.3

Others:
Just so you know, measured Fold IC50 increase relative to wild-type for PGT-125 (antibody, V domains shown) VH: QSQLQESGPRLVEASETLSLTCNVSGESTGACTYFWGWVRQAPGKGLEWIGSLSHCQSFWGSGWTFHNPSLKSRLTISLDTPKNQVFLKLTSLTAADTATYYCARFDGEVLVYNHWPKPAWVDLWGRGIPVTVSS VL: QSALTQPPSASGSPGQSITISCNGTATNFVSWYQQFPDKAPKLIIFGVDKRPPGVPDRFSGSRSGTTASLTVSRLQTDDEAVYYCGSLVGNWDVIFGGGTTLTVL came out at 5
